// reported binding signal for each item listed
Target: T1, RBFOX1 RRM (Homo sapiens, UniProt Q9NWB1 109-208)
T1 sequence: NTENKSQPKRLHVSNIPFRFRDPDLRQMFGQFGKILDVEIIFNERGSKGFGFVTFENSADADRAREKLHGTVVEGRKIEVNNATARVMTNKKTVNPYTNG
Experiment: EMSA; HiTS-Eq, 1 nM pool, 10 min; buffer printed only for the single-RNA assays: 10 mM Tris pH 7.5, 150 mM NaCl, 3.4 mM EDTA, 0.001% NP-40, 30 C
Settings: tags: His6 N-terminal (pET28a); label: 5' 32P
In all, about 16,000 sequences were measured (“ka relative to ugcaugu”: median about 0.0091, highest 2% from about 0.032 on). Many of the other results were omitted from the sample, so the highest values are more common in it than they were.

BINDER	ENDPOINT	OBSERVED
GUAUGGG (DNA:RNA) RNA: GGGAGACCGGAAUUCAGAUUGUCCGUAUGGGUUAAAUCCCGUCGUAGCCACCA DNA 1: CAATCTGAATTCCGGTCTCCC DNA 2: TGGTGGCTACGACGGGATT	binding signal	0.00944 KA relative to UGCAUGU
GCAUGGU (DNA:RNA) RNA: GGGAGACCGGAAUUCAGAUUGUCCGCAUGGUUUAAAUCCCGUCGUAGCCACCA DNA 1: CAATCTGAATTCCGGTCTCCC DNA 2: TGGTGGCTACGACGGGATT	binding signal	0.558 KA relative to UGCAUGU
GGAUGGG (DNA:RNA) RNA: GGGAGACCGGAAUUCAGAUUGUCCGGAUGGGUUAAAUCCCGUCGUAGCCACCA DNA 1: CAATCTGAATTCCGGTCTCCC DNA 2: TGGTGGCTACGACGGGATT	binding signal	0.0169 KA relative to UGCAUGU

Now let's try a different one.
Prompt line: Quote binding signal reported for ACCACGU (DNA:RNA) RNA: GGGAGACCGGAAUUCAGAUUGUCCACCACGUUUAAAUCCCGUCGUAGCCACCA DNA 1: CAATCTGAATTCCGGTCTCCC DNA 2: TGGTGGCTACGACGGGATT please.
Response line: 0.00412 KA relative to UGCAUGU
